# System: Moraxella catarrhalis
# PROCEDURE DETAILS: Antibacterial activity against Moraxella catarrhalis BC-3531
# Format: functional
VALUE KIND: MIC (µg/mL)
Numbers only, in µg/mL.

COc1c(N2CC[C@@H]([C@H](C)N)C2)c(F)cc2c(=O)n(N)c(=O)n(C3CC3)c12 | 1
C[C@H]1NCc2cc(-c3ccc4c(=O)c(C(=O)O)cn(C5CC5)c4c3OC(F)F)ccc21 [GARENOXACIN] | 0.03

// each listed molecule needs a value for MIC
1. C[C@H]1COc2c(N3CCN(C)CC3)c(F)cc3c(=O)c(C(=O)O)cn1c23.C[C@H]1COc2c(N3CCN(C)CC3)c(F)cc3c(=O)c(C(=O)O)cn1c23.O [LEVOFLOXACIN]
2. Cc1c(N2CC[C@@H]([C@H](C)N)C2)c(F)cc2c(=O)n(N)c(=O)n(C3CC3)c12

1: 0.03; 2: 0.25

List MIC for every entry below, keeping the order given.
1. O=C(O)c1cn(C2CC2)c2cc(N3CCNCC3)c(F)cc2c1=O [CIPROFLOXACIN]
2. COc1c(N2CCNC(C)C2)c(F)cc2c(=O)c(C(=O)O)cn(C3CC3)c12 (stereo unspecified) [GATIFLOXACIN]

1: 0.03; 2: 0.03

###

# Tested on: Streptococcus pneumoniae
# PROCEDURE DETAILS: Antibacterial activity against quinolone-resistant Streptococcus pneumonia SP3763
# Type: functional
VALUE KIND: MIC (µg/mL)
Answers are plain numbers, in µg/mL.

C[C@H]1NCc2cc(-c3ccc4c(=O)c(C(=O)O)cn(C5CC5)c4c3OC(F)F)ccc21 | 1
COc1c(N2CCNC(C)C2)c(F)cc2c(=O)c(C(=O)O)cn(C3CC3)c12 (stereo not given) | 4
O=C(O)c1cn(C2CC2)c2cc(N3CCNCC3)c(F)cc2c1=O | 64
Cc1c(N2CC[C@@H]([C@H](C)N)C2)c(F)cc2c(=O)n(N)c(=O)n(C3CC3)c12 | 0.06

"COc1c(N2CC[C@@H]([C@H](C)N)C2)c(F)cc2c(=O)n(N)c(=O)n(C3CC3)c12" has a reported MIC of 0.06

###

# System: Streptococcus pyogenes
# PROCEDURE DETAILS: Antibacterial activity against Streptococcus pyogenes C203 SP1-1
# Assay type: functional
For each of the molecules below, state its MIC.

Here is how some molecules turned out for MIC.
COc1c(N2CCNC(C)C2)c(F)cc2c(=O)c(C(=O)O)cn(C3CC3)c12 (stereo unspecified) | 0.5 µg/mL
O=C(O)c1cn(C2CC2)c2cc(N3CCNCC3)c(F)cc2c1=O | 0.5 µg/mL
COc1c(N2CC[C@@H]([C@H](C)N)C2)c(F)cc2c(=O)n(N)c(=O)n(C3CC3)c12 | 0.03 µg/mL
Cc1c(N2CC[C@@H]([C@H](C)N)C2)c(F)cc2c(=O)n(N)c(=O)n(C3CC3)c12 | 0.015 µg/mL
C[C@H]1COc2c(N3CCN(C)CC3)c(F)cc3c(=O)c(C(=O)O)cn1c23.C[C@H]1COc2c(N3CCN(C)CC3)c(F)cc3c(=O)c(C(=O)O)cn1c23.O | 0.5 µg/mL

Now for a further molecule.
Just so you know, measured MIC for "C[C@H]1NCc2cc(-c3ccc4c(=O)c(C(=O)O)cn(C5CC5)c4c3OC(F)F)ccc21" came out at 0.06 µg/mL

###

For each record, write down the corresponding MIC.
# System: Klebsiella pneumoniae
# PROCEDURE DETAILS: Antibacterial activity against Klebsiella pneumonia KP2
# Format: functional
Give bare numbers, in µg/mL.

COc1c(N2CCNC(C)C2)c(F)cc2c(=O)c(C(=O)O)cn(C3CC3)c12 (stereo not given) [GATIFLOXACIN] | 0.06
C[C@H]1COc2c(N3CCN(C)CC3)c(F)cc3c(=O)c(C(=O)O)cn1c23.C[C@H]1COc2c(N3CCN(C)CC3)c(F)cc3c(=O)c(C(=O)O)cn1c23.O [LEVOFLOXACIN] | 0.03
COc1c(N2CC[C@@H]([C@H](C)N)C2)c(F)cc2c(=O)n(N)c(=O)n(C3CC3)c12 | 8
Cc1c(N2CC[C@@H]([C@H](C)N)C2)c(F)cc2c(=O)n(N)c(=O)n(C3CC3)c12 | 1

API: the following record is the query input.
For reference, reported MIC for C[C@H]1NCc2cc(-c3ccc4c(=O)c(C(=O)O)cn(C5CC5)c4c3OC(F)F)ccc21 [GARENOXACIN] stands at 0.06

###

# System: Staphylococcus aureus
# PROCEDURE DETAILS: Antibacterial activity against methicillin-resistant Staphylococcus aureus SA1417
# Format: functional
VALUE KIND: MIC (µg/mL)
Answers are plain numbers, in µg/mL.

// known answers, use as guide
O=C(O)c1cn(C2CC2)c2cc(N3CCNCC3)c(F)cc2c1=O | 0.5
C[C@H]1COc2c(N3CCN(C)CC3)c(F)cc3c(=O)c(C(=O)O)cn1c23.C[C@H]1COc2c(N3CCN(C)CC3)c(F)cc3c(=O)c(C(=O)O)cn1c23.O | 0.25

Provide MIC values for the following items, in order.
1. C[C@H]1NCc2cc(-c3ccc4c(=O)c(C(=O)O)cn(C5CC5)c4c3OC(F)F)ccc21
2. COc1c(N2CC[C@@H]([C@H](C)N)C2)c(F)cc2c(=O)n(N)c(=O)n(C3CC3)c12
3. COc1c(N2CCNC(C)C2)c(F)cc2c(=O)c(C(=O)O)cn(C3CC3)c12 (stereo unspecified)
4. Cc1c(N2CC[C@@H]([C@H](C)N)C2)c(F)cc2c(=O)n(N)c(=O)n(C3CC3)c12

0.03
0.25
0.125
0.125

###

# Tested on: Pseudomonas aeruginosa
# PROCEDURE DETAILS: Antibacterial activity against Pseudomonas aeruginosa PA7
# Type: functional
Labelling field: enter Fulfilled if recorded MIC is less than 0.5 µg/mL. Enter Not fulfilled if it equals or exceeds that cut-off.

Cc1c(N2CC[C@@H]([C@H](C)N)C2)c(F)cc2c(=O)n(N)c(=O)n(C3CC3)c12 | Not fulfilled
O=C(O)c1cn(C2CC2)c2cc(N3CCNCC3)c(F)cc2c1=O | Fulfilled
COc1c(N2CC[C@@H]([C@H](C)N)C2)c(F)cc2c(=O)n(N)c(=O)n(C3CC3)c12 | Not fulfilled

# strict comparison: is reported MIC < 0.5 µg/mL? input = "C[C@H]1NCc2cc(-c3ccc4c(=O)c(C(=O)O)cn(C5CC5)c4c3OC(F)F)ccc21"
Not fulfilled

Cited source: ChEMBL document CHEMBL1137308
